These data points were gathered from ChEMBL document CHEMBL3885881.

# Species: Rattus norvegicus
# Assay Name: DrugMatrix - Regimen: Daily Repeat
# Type: toxicity, organism-based, Sprague-Dawley
# Set-up: regimen Daily Repeat, gender Male, age 6-8 weeks
# Assay Conditions: in vivo, po, 0 mg/kg, 72 h, tissue Blood, route oral GAVAGE, dose level Control, time 3 day, vehicle .5 % CMC
Measurement Label: LEUKOCYTE COUNT (x10E3/uL)
Express it in x10E3/uL; write the number only.

Compound	LEUKOCYTE COUNT [x10E3/uL]
CC(C(=O)O)c1ccc(-c2ccccc2)c(F)c1 (stereo not drawn)	16.17
Cc1cnc(C(=O)NCCc2ccc(S(=O)(=O)NC(=O)NC3CCCCC3)cc2)cn1 [GLIPIZIDE]	13.57
COc1ccccc1OCC(O)COC(N)=O (stereo not drawn)	15.25
O=c1cc(-c2ccccc2)oc2ccc3ccccc3c12	11.41
C=C(CC)C(=O)c1ccc(OCC(=O)O)c(Cl)c1Cl	11.54

Could you tell me which LEUKOCYTE COUNT is on file for "Clc1cc2c(cc1Cl)Oc1cc(Cl)c(Cl)cc1O2" ? 11.41

Field request: LEUKOCYTE COUNT | item: CC(=O)O[C@]1(C(C)=O)CC[C@H]2[C@@H]3C=C(Cl)C4=CC(=O)[C@@H]5C[C@@H]5[C@]4(C)[C@H]3CC[C@@]21C [CYPROTERONE ACETATE] 13.57

Requested field: LEUKOCYTE COUNT. Item: "Nc1cccc(Cl)c1" 11.39

Would you mind telling me what LEUKOCYTE COUNT value was observed for "CCOC(=O)[C@H](CCc1ccccc1)N[C@@H](C)C(=O)N1Cc2ccccc2C[C@H]1C(=O)O" ? 13.57

* * *

# Organism: Rattus norvegicus
# Assay Name: DrugMatrix - Regimen: Daily Repeat
# Assay type: toxicity, organism-based, Sprague-Dawley
# Design: regimen Daily Repeat, gender Male, age 6-8 weeks
# Assay Conditions: in vivo, po, 0 mg/kg, 72 h, tissue Plasma, route oral GAVAGE, dose level Control, time 3 day, vehicle .5 % CMC
Measurement Label: CHOLESTEROL
Please make sure the unit comes right after the number.

Below are worked cases with known answers.
Compound	CHOLESTEROL
CC(=O)O[C@]1(C(C)=O)CC[C@H]2[C@@H]3C=C(Cl)C4=CC(=O)[C@@H]5C[C@@H]5[C@]4(C)[C@H]3CC[C@@]21C [CYPROTERONE ACETATE]	70 mg/dL
Cc1cnc(C(=O)NCCc2ccc(S(=O)(=O)NC(=O)NC3CCCCC3)cc2)cn1 [GLIPIZIDE]	70 mg/dL
C[C@]12C/C(=C/O)C(=O)C[C@@H]1CC[C@@H]1[C@@H]2CC[C@@]2(C)[C@H]1CC[C@]2(C)O	71 mg/dL
CCOC(=O)[C@H](CCc1ccccc1)N[C@@H](C)C(=O)N1Cc2ccccc2C[C@H]1C(=O)O	70 mg/dL
CO[C@H]1C[C@@H]2CC[C@@H](C)[C@@](O)(O2)C(=O)C(=O)N2CCCC[C@H]2C(=O)O[C@H]([C@H](C)C[C@@H]2CC[C@@H](O)[C@H](OC)C2)CC(=O)[C@H](C)/C=C(\C)[C@@H](O)[C@@H](OC)C(=O)[C@H](C)C[C@H](C)/C=C/C=C/C=C/1C	68.83 mg/dL

Quick one: CHOLESTEROL for "CCCCC1C(=O)N(c2ccccc2)N(c2ccccc2)C1=O" ? 72 mg/dL

Tell me the measured CHOLESTEROL of "CN1C(=O)CN=C(c2ccccc2)c2cc(Cl)ccc21" , please. 71.17 mg/dL

* * *

# Organism: Rattus norvegicus
# Assay Name: DrugMatrix - Regimen: Daily Repeat
# Assay type: toxicity, organism-based, Sprague-Dawley
# Design: regimen Daily Repeat, gender Male, age 6-8 weeks
# Assay Conditions: in vivo, po, 0 mg/kg, 120 h, tissue Blood, route oral GAVAGE, dose level Control, time 5 day, vehicle 100 % WATER
Flag rule - LEUKOCYTE COUNT less than 10 x10E3/uL flags Satisfied; the remaining entries get Not satisfied.

> print(dat)
                                   molecule     class.name
1  CCN(CC)CC#CCOC(=O)C(O)(c1ccccc1)C1CCCCC1 (stereo not drawn) [OXYBUTYNIN]  Not satisfied

Please check: LEUKOCYTE COUNT for "CCCc1nn(C)c2c(=O)[nH]c(-c3cc(S(=O)(=O)N4CCN(C)CC4)ccc3OCC)nc12" , strictly under 10 x10E3/uL or not? Not satisfied

Given the entry "CCCCCCCCCCCCCCCC[n+]1ccccc1.[Br-]" , would its reported LEUKOCYTE COUNT be below 10 x10E3/uL? Not satisfied

* * *

Each entry below lists one item and its recorded TOTAL PROTEIN value.
# Organism: Rattus norvegicus
# Assay Name: DrugMatrix - Regimen: Daily Repeat
# Format: toxicity, organism-based, Sprague-Dawley
# Design: regimen Daily Repeat, gender Male, age 6-8 weeks
# Assay Conditions: in vivo, po, 0 mg/kg, 120 h, tissue Plasma, route oral GAVAGE, dose level Control, time 5 day, […]
Report the value in G/DL with no unit label.

Solved cases (3 shown):
> print(dat)
                                   compound  measurement.label  units  assay.value
1  COc1ncnc(NS(=O)(=O)c2ccc(N)cc2)c1OC [SULFADOXINE]      TOTAL PROTEIN   G/DL            6
2  OCCN1CCN(CCCN2c3ccccc3Sc3ccc(C(F)(F)F)cc32)CC1 [FLUPHENAZINE]      TOTAL PROTEIN   G/DL         6.05
3  CC(=O)Nc1nnc(S(N)(=O)=O)s1 [ACETAZOLAMIDE]      TOTAL PROTEIN   G/DL            6

Reported TOTAL PROTEIN for CC(C)Cc1ccc(CC(=O)O)cc1 [IBUFENAC] : what is it? 5.88

* * *

Examples of compounds with documented PLATELET COUNT follow.
# Organism: Rattus norvegicus
# Assay Name: DrugMatrix - Regimen: Daily Repeat
# Format: toxicity, organism-based, Sprague-Dawley
# Set-up: regimen Daily Repeat, gender Male, age 6-8 weeks
# Assay Conditions: in vivo, po, 0 mg/kg, 72 h, tissue Blood, route oral GAVAGE, dose level Control, time 3 day, vehicle 100 % WATER
Kindly provide the numeric value in x10E3/uL only, without the unit symbol.

Below: 2 compounds and their reported PLATELET COUNT.
> print(dat)
                              compound  measurement.label  assay.value
1  CC(C)(C)NC[C@H](O)COc1nsnc1N1CCOCC1     PLATELET COUNT      1022.83
2                       O=C(O)c1cccnc1     PLATELET COUNT      1016.67

Fill in: PLATELET COUNT of "Nc1ccc(S(=O)(=O)Nc2nccs2)cc1" is ___ 1022.83

Sample CN1C2CCCC1CC(NC(=O)c1nn(C)c3ccccc13)C2 (centres undefined) — what was its PLATELET COUNT? 1022.83

* * *

Measured CARBON DIOXIDE, listed per entry for reference.
# Species: Rattus norvegicus
# Assay Name: DrugMatrix - Regimen: Daily Repeat
# Format: toxicity, organism-based, Sprague-Dawley
# Set-up: regimen Daily Repeat, gender Male, age 6-8 weeks
# Assay Conditions: in vivo, po, 0 mg/kg, 72 h, tissue Plasma, route oral GAVAGE, dose level Control, time 3 day, vehicle .5 % CMC

Solved entries:
Compound	CARBON DIOXIDE
CO[C@H]1C[C@@H]2CC[C@@H](C)[C@@](O)(O2)C(=O)C(=O)N2CCCC[C@H]2C(=O)O[C@H]([C@H](C)C[C@@H]2CC[C@@H](O)[C@H](OC)C2)CC(=O)[C@H](C)/C=C(\C)[C@@H](O)[C@@H](OC)C(=O)[C@H](C)C[C@H](C)/C=C/C=C/C=C/1C	29.17 mmol/L
Cc1cnc(C(=O)NCCc2ccc(S(=O)(=O)NC(=O)NC3CCCCC3)cc2)cn1 [GLIPIZIDE]	29.5 mmol/L

Attention now shifts to the item below.
Dear colleague, I am looking for the recorded CARBON DIOXIDE of the following compound: CC(=O)O[C@]1(C(C)=O)CC[C@H]2[C@@H]3C=C(Cl)C4=CC(=O)[C@@H]5C[C@@H]5[C@]4(C)[C@H]3CC[C@@]21C [CYPROTERONE ACETATE] 29.5 mmol/L

* * *

Below, each of the compounds is paired with its reported ABSOLUTE EOSINOPHIL value.
# Species on record: Rattus norvegicus
# Assay Name: DrugMatrix - Regimen: Daily Repeat
# Type: toxicity, organism-based, Sprague-Dawley
# Parameters: regimen Daily Repeat, gender Male, age 6-8 weeks
# Assay Conditions: in vivo, po, 0 mg/kg, 72 h, tissue Blood, route oral GAVAGE, dose level Control, time 3 day, vehicle .5 % CMC
Provide only the numeric value, understood in CELLS/uL.

Consider the following illustrative entries.
> print(dat)
                                   compound     units  assay.value
1  Cc1cnc(C(=O)NCCc2ccc(S(=O)(=O)NC(=O)NC3CCCCC3)cc2)cn1 [GLIPIZIDE]  CELLS/uL            0
2  CCOC(=O)[C@H](CCc1ccccc1)N[C@@H](C)C(=O)N1Cc2ccccc2C[C@H]1C(=O)O  CELLS/uL            0
3  CC(=O)O[C@]1(C(C)=O)CC[C@H]2[C@@H]3C=C(Cl)C4=CC(=O)[C@@H]5C[C@@H]5[C@]4(C)[C@H]3CC[C@@]21C [CYPROTERONE ACETATE]  CELLS/uL            0
4   COc1ccc(/C=C/C(=O)Nc2ccccc2C(=O)O)cc1OC  CELLS/uL       222.83
5  CC(C)(Sc1cc(C(C)(C)C)c(O)c(C(C)(C)C)c1)Sc1cc(C(C)(C)C)c(O)c(C(C)(C)C)c1  CELLS/uL       222.83

Moving on to another compound below.
I am curious: what ABSOLUTE EOSINOPHIL value has been reported for "C[C@@H]1CC[C@H]2[C@@H](C)C(=O)O[C@@H]3O[C@@]4(C)CC[C@@H]1[C@]32OO4" ? 171.33
